Molecular target: T1, UNK ZnF1-6 (called full-length) (human, UniProt Q9C0B0 30-357)
T1 sequence: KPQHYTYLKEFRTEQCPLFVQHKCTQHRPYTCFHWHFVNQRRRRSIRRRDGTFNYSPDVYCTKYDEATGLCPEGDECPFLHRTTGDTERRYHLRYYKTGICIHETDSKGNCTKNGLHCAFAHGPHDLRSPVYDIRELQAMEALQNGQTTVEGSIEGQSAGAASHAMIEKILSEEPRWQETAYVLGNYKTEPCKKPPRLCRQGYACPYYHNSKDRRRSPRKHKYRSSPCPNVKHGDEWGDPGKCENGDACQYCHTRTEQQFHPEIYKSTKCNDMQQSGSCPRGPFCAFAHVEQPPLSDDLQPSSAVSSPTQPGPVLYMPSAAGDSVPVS
Test: nsRBNS (natural sequence RNA bind-n-seq); RBNS binding buffer (assumed for nsRBNS): 25 mM Tris pH 7.5, 150 mM KCl, 3 mM MgCl2, 0.01% Triton X-100, 500 ug/ml BSA, 20 U/ml SUPERase-In, 4 C; UNK is unkempt and MSI1 is Musashi-1; names of the RNAs are library labels; protein concentration not given here; high values mean tight binding
In all, about 5,800 sequences were measured (“enrichment r”: median about 0.68, highest 2% from about 11 on). The list comes from a sample in which the highest values are over-represented; it also holds close analogues and randomly drawn sequences.
Listing of recorded binding signal by entry.
I only need the number, in enrichment R, no unit after it.

Worked examples follow.
{"columns": ["binder", "u", "binding signal"],
 "data": [
  ["chr14:75134463:75134564:-|3pUTR|ENSG00000170348|msi1|FALSE|unique (ssRNA) RNA: GGGAGUUCUACAGUCCGACGAUCCUGUUUGGACUAUGUUUUCUUUUCUUCUCCCACUUGCUCAGCAGCUUGGGCUUCCAUUCUAGUUCUUUUACCAAGAUUUUUGUGUGACCAUGUUGACUUCAUUUGGAUUGCCCUCUUUCACAACAGAGGAUUGAGCAUCA", "enrichment R", 0.995],
  ["chr22:21921976:21922077:-|3pUTR|ENSG00000100034|msi1|FALSE|unique (ssRNA) RNA: GGGAGUUCUACAGUCCGACGAUCGACUGCAGUGGGCUCGGAUAGGCCCAUUGAGGUUUUUAGAAAAGCAGGAUUUGUUUUGUUAGGGAGGCAUGAUUUUGGUGAGAUCUUUCUGGAAGAGUUUUCCGCCUCUUUGUGAUGCUGCAACAGAGGAUUGAGCAUCA", "enrichment R", 0.813]
]}

As a next step, examine the binder that follows.
chr5:97028609:97028710:+|3pUTR|ENSG00000113441|msi1|FALSE|bound_elsewhere (ssRNA) RNA: GGGAGUUCUACAGUCCGACGAUCUUGCAAAAGCCAAGGUAAAGCCAGGAUCGCUGCCAAGUUGUUUGCACUCUUUGGAGUUCUAGUUAGCUCAGGGCCUGACUGUAUUUUUCAUCCAUCUUUUCUGAAGUGUCUUUGGGCAGUCAACAGAGGAUUGAGCAUCA has a reported binding signal of 0.475

Cited source: paper PMC12136788
